Reference source for all entries: patent US12054498B2

Documented pKi across a set of compounds
Target: TRKA-wt (Homo sapiens, UniProt P04629)
Sequence (P04629 510-781 limits assumed): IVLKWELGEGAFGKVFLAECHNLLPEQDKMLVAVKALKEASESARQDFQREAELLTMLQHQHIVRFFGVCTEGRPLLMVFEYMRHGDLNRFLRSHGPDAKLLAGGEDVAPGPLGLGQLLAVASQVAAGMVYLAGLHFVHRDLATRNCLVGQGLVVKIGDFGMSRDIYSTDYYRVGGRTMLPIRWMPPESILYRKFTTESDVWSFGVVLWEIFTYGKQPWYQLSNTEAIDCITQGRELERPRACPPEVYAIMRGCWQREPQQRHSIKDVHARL
pKi: −log10 of the molar value.

Recorded results for 7 compounds are shown here.
{"compound": "CCn1nc(C)c2c1-c1cnc(N)c(c1)O[C@H](C)c1cc(F)ccc1-c1nn(C)nc1C2 [Example 29]", "result": "6.30 to 7.30"}
{"compound": "CCn1ncc2c1-c1cnc(N)c(c1)O[C@H](C)c1cc(F)ccc1-c1c(F)cnn1C2 [Example 8]", "result": "< 6.30"}
{"compound": "C[C@H]1Oc2cc(cnc2N)-c2c(cnn2C2CCC2)Cc2ncnn2-c2ccc(F)cc21 [Example 41]", "result": "< 6.30"}
{"compound": "CCc1nn(C)c2c1-c1cnc(N)c(c1)O[C@H](C)c1cc(F)ccc1-c1nn(C)nc1C2 [Example 98]", "result": "6.30 to 7.30"}
{"compound": "CCn1ncc2c1-c1cnc(N)c(c1)O[C@H](C)c1cc(F)ccc1-c1oc(C)nc1C2 [Example 66]", "result": "6.30 to 7.30"}
{"compound": "C[C@H]1Oc2cc(cnc2N)-c2c(cnn2CC2CC2)Cc2nn(C)nc2-c2ccc(F)cc21 [Example 69]", "result": "< 6.30"}
{"compound": "Cc1nc2n(n1)Cc1cnn(CC3CC3)c1-c1cnc(N)c(c1)O[C@H](C)c1cc(F)ccc1-2 [Example 75]", "result": "6.30 to 7.30"}

Consider the record given below.
Task item: Look up pKi with TRKA-wt (Homo sapiens, UniProt P04629) for this compound: Cc1nn(CC2CC2)c2c1Cc1nn(C)nc1-c1ccc(F)cc1[C@@H](CO)Oc1cc-2cnc1N [Example 96]
Reply: < 6.30

###

Item-by-item account of IC50
Biological target: Ba/F3 cells TPM3-TRKA (Homo sapiens)
Construct: the other entry of the earlier key: TPM3 (P06753, Tropomyosin alpha-3 chain)
Sequence (P04629 510-796 limits assumed): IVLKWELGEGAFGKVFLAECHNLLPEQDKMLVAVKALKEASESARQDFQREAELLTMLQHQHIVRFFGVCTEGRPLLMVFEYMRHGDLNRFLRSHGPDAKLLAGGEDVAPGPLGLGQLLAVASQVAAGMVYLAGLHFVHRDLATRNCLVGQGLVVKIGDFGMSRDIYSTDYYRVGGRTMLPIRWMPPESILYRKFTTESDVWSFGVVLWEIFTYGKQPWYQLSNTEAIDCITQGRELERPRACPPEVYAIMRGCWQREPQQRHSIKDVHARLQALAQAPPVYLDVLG
Assay: Ba/F3 cell proliferation assay, TPM3-TRKA
Details: 72 hours, CellTiter-Glo, read-out: TPM3-NTRK1-wt IC50

{"compound": "CCn1ncc2c1-c1cnc(N)c(c1)OC(C)c1cc(F)cnc1-c1ccnn1C2 (stereo not shown)", "systemTested": "Ba/F3 cells TPM3-TRKA (Homo sapiens)", "IC50": "> 500 nM"}
{"compound": "C[C@H]1Oc2cc(cnc2N)-c2c(cnn2CC(F)F)Cn2nc(Cl)cc2-c2ccc(F)cc21", "systemTested": "Ba/F3 cells TPM3-TRKA (Homo sapiens)", "IC50": "> 500 nM"}
{"compound": "CCc1nsc2c1-c1cnc(N)c(c1)O[C@H](C)c1cc(F)ccc1-c1ncnn1C2", "systemTested": "Ba/F3 cells TPM3-TRKA (Homo sapiens)", "IC50": "> 500 nM"}
{"compound": "C[C@H]1Oc2cc(cnc2N)-c2c(cnn2C2CC2)Cc2nn(C)nc2-c2ccc(F)cc21", "systemTested": "Ba/F3 cells TPM3-TRKA (Homo sapiens)", "IC50": "50 to 500 nM"}
{"compound": "CCn1ncc2c1-c1cnc(N)c(c1)O[C@H](C)c1cc(F)ccc1-c1ccnn1C2", "systemTested": "Ba/F3 cells TPM3-TRKA (Homo sapiens)", "IC50": "> 500 nM"}
{"compound": "C[C@H]1Oc2cc(cnc2N)-c2c(cnn2CC(F)F)Cc2ncc(F)cc2-c2ccc(F)cc21", "systemTested": "Ba/F3 cells TPM3-TRKA (Homo sapiens)", "IC50": "50 to 500 nM"}
{"compound": "Cc1nn(CC2CC2)c2c1Cc1nn(C)nc1-c1ccc(F)cc1[C@@H](C)Oc1cc-2cnc1N", "systemTested": "Ba/F3 cells TPM3-TRKA (Homo sapiens)", "IC50": "> 500 nM"}
{"compound": "C[C@H]1Oc2cc(cnc2N)-c2c(cnn2CC(F)F)Cc2nn(C)nc2-c2ccc(F)cc21", "systemTested": "Ba/F3 cells TPM3-TRKA (Homo sapiens)", "IC50": "> 500 nM"}

Task item: For the compound shown here, C[C@H]1Oc2cc(cnc2N)-c2c(C#N)cnn2Cc2ncsc2-c2ccc(F)cc21 , give the reported IC50.
Reply: > 500 nM

Task item: # get_value(readout='IC50', item= Cc1nn(CC2CC2)c2c1Cn1ncnc1-c1ccc(F)cc1[C@@H](C)Oc1cc-2cnc1N )
Reply: > 500 nM

Task item: Which IC50 value belongs to C[C@H]1Oc2cc(cnc2N)-c2c(C3CCC3)noc2Cn2ncnc2-c2ccc(F)cc21 ?
Reply: > 500 nM

Task item: Entry CCn1nc(C)c2c1-c1cnc(N)c(c1)O[C@H](C)c1cc(F)ccc1-c1nn(C)nc1C2 : reported IC50 = ?
Reply: 50 to 500 nM

Task item: Item CCn1ncc2c1-c1cnc(N)c(c1)O[C@H](C)c1cc(F)ccc1-c1c(Cl)cnn1C2 has what recorded IC50?
Reply: > 500 nM

Task item: Item C[C@H]1Oc2cc(cnc2N)-c2c(cnn2C(F)F)Cn2nccc2-c2ccc(F)cc21 has what recorded IC50?
Reply: > 500 nM

Task item: Fill blank: measured IC50 of the compound CCn1ncc2c1-c1cnc(N)c(c1)O[C@H](C)c1cc(F)ccc1-c1ncnn1C2 is ____.
Reply: > 500 nM

Task item: Which measured IC50 value corresponds to CCn1ncc2c1-c1cnc(N)c(c1)O[C@H](C)c1cc(F)ccc1-c1c(ncn1C)C2 ?
Reply: > 500 nM
